- test summary: Single oral dose pharmacokinetics (plasma and urine) of SYM-1219 microgranule formulation in fasted healthy female subjects
- condition context: female, human, plasma, po, 1 gram, AUC0-∞, Geometric Mean; 1 gram single oral dose; fasted; N = 14
endpoint: AUC(0-inf) (µg·h/mL)
Numbers only, in µg·h/mL.

Would you mind telling me what AUC(0-inf) value was observed for Cc1ncc([N+](=O)[O-])n1CC(C)O (stereo not shown) ?
612

* * *

- test summary: Effect of a single 2 g dose of SYM-1219 on the plasma pharmacokinetics of EE2 and NET in healthy female subjects
- Type: in vivo, human
- condition context: female, human, plasma, Group B1 Period 2: EE2/NET followed by SYM-1219 2 grams on Day 1; read-out: NET AUC0-t, Mean
- Experimental: Methods: Fifty-four (54) healthy female subjects, ages 18-65, received EE2/NET alone and in combination, where SYM-1219+EE2/NET were co-administered on Day 1 (Group B1; N=27) or SYM-1219 on Day 1 and EE2/NET on Day 2 (Group B2; N=27). Serial blood samples were drawn to measure plasma concentrations of EE2/NET. […] Safety was evaluated by recording of adverse events, vital signs, ECGs and standard laboratory tests.
endpoint: AUC(0-t)

Would you mind telling me what AUC(0-t) value was observed for `C#C[C@]1(O)CC[C@H]2[C@@H]3CCC4=CC(=O)CC[C@@H]4[C@H]3CC[C@@]21C` ?
53.5 ng·h/mL

* * *

- test summary: Effect of a single 2 g dose of SYM-1219 on the plasma pharmacokinetics of EE2 and NET in healthy female subjects
- Assay type: in vivo, human
- condition context: female, human, plasma, Group B1 Period 2: EE2/NET followed by SYM-1219 2 grams on Day 1; read-out: EE2 AUC0-∞, Mean
endpoint: AUC(0-inf)
A complete answer gives the number and then names the unit.

Would you mind telling me what AUC(0-inf) value was observed for `C#C[C@]1(O)CC[C@H]2[C@@H]3CCc4cc(O)ccc4[C@H]3CC[C@@]21C` ?
0.954 ng·h/mL

* * *

- test summary: Effect of a single 2 g dose of SYM-1219 on the plasma pharmacokinetics of EE2 and NET in healthy female subjects
- Assay type: in vivo, human
- condition context: female, human, plasma, Group B1 Period 1: EE2/NET alone; read-out: EE2 AUC0-∞, Mean
endpoint: AUC(0-inf) (ng·h/mL)
Answers are plain numbers, in ng·h/mL.

Would you mind telling me what AUC(0-inf) value was observed for `C#C[C@]1(O)CC[C@H]2[C@@H]3CCc4cc(O)ccc4[C@H]3CC[C@@]21C` ?
0.911

* * *

- test summary: Effect of a single 2 g dose of SYM-1219 on the plasma pharmacokinetics of EE2 and NET in healthy female subjects
- Format: in vivo, human
- condition context: female, human, plasma, Group B1 Period 1: EE2/NET alone; read-out: EE2 AUC0-t, Geometric Least Squares (LS) Means
endpoint: AUC(0-t) (ng·h/mL)
Answers are plain numbers, in ng·h/mL.

Would you mind telling me what AUC(0-t) value was observed for C#C[C@]1(O)CC[C@H]2[C@@H]3CCc4cc(O)ccc4[C@H]3CC[C@@]21C [EE2, ethinyl estradiol] ?
0.627

* * *

- test summary: Effect of a single 2 g dose of SYM-1219 on the plasma pharmacokinetics of EE2 and NET in healthy female subjects
- Format: in vivo, human
- condition context: female, human, plasma, Group B2 Period 1: EE2/NET alone; read-out: NET Cmax, Geometric LSMeans
endpoint: Cmax (ng/mL)
Numbers only, in ng/mL.

Would you mind telling me what Cmax value was observed for C#C[C@]1(O)CC[C@H]2[C@@H]3CCC4=CC(=O)CC[C@@H]4[C@H]3CC[C@@]21C [NET, norethindrone] ?
8.36
